Target: NS5B-621 from HCV GT-1b Con-1 (Hepatitis C virus genotype 1b)
Assay: NS5B RNA-dependent RNA polymerase inhibition assay
Type: biochemical
Settings: second IC50 column; 1 μM NTP substrates including either [32P]-CTP or [32P]-UTP, columns not distinguished
Description: Compounds were assayed for inhibition of NS5B-621 from HCV GT-1b Con-1. Reactions included purified recombinant enzyme, 1 u/μL negative-strand HCV IRES RNA template, and 1 μM NTP substrates including either [^32P]-CTP or [^32P]-UTP. Assay plates were incubated at 27° C. for 1 hour before quench. [^32P] incorporation into macromolecular product was assessed by filter binding.
RECORDED METRIC: pIC50
// scale note: pIC50 = -log10(conc_M); give the bare number

Supply measured pIC50 of O=c1ccn([C@@H]2O[C@H](COP(=O)(O)OP(=O)(O)OP(=O)(O)O)[C@@H](O)[C@]2(O)CF)c(=O)[nH]1 in your reply.
4.87
